# Assayed Target: ATP-dependent translocase ABCB1 (Homo sapiens, UniProt P08183)
# Sequence (P08183 whole entry): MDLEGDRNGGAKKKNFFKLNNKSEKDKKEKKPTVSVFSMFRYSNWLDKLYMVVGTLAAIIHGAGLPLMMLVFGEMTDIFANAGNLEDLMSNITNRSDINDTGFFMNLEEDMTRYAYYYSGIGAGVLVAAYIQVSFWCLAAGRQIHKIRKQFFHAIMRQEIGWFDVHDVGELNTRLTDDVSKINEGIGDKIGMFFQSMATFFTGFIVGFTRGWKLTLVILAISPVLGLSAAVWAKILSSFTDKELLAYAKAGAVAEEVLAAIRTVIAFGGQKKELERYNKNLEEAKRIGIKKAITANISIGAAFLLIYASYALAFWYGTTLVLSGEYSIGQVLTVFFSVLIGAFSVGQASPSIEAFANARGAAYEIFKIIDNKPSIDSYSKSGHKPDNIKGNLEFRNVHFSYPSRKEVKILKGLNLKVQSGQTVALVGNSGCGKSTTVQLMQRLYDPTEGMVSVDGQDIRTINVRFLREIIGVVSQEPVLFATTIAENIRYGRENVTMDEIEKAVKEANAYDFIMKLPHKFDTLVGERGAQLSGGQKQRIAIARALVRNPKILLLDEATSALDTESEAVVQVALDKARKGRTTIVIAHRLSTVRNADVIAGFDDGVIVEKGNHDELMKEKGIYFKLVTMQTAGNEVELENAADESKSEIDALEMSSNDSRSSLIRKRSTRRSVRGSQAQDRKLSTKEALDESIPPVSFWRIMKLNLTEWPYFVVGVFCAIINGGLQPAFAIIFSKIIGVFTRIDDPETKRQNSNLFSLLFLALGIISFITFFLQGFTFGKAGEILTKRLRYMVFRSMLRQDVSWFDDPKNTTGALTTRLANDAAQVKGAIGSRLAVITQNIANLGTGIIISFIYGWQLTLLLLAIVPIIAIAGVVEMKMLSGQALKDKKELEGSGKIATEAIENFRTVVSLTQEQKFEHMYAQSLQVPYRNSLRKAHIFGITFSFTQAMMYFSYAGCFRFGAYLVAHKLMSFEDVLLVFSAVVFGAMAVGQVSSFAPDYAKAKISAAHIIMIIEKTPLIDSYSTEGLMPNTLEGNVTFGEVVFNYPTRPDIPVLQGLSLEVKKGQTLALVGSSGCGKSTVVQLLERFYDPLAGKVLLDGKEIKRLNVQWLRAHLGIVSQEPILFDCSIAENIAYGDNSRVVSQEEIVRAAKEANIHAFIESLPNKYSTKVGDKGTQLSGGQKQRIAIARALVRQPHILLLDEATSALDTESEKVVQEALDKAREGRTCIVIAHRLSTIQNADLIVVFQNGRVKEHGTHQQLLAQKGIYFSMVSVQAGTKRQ
# Assay Explanation: TP_TRANSPORTER: inhibition of DNR efflux (DNR: ? uM) in MDR1-expressing NIH3T3 cells
Recorded Metric: IC50 (nM)
Please state the figure in nM; there is no need to write the unit.

q: Please report the measured IC50 for NC(=O)N1CCC(CC(=O)N2CCC([C@H]3c4ncc(Br)cc4CCc4cc(Cl)cc(Br)c43)CC2)CC1
a: 2700
